# TARGET_SYSTEM: UniProtKB P07900
TEST_READOUT: IC50

Here are 3 compounds together with their reported answers.
>>> result("CCOC(=O)NCc1ccc(-n2c(-c3ccc(O)cc3O)n[nH]c2=S)cc1 [Ethyl carbamate analog, 3]")
"0.1 nM"
>>> result("Oc1ccc(-c2nnc(S)n2-c2ccccc2)c(O)c1")
"0.5 nM"
>>> result("CCc1cc(-c2nnc(S)n2-c2cccc3ccccc23)c(O)cc1O")
"0.2 nM"

Continue with the next compound.
Let me check: "CCOC(=O)NCc1ccc(-n2c(-c3cc(C(C)C)c(O)cc3O)n[nH]c2=S)cc1" , system UniProtKB P07900, measured IC50 is 0.04 nM
